# assay notes: Drug uptake in rat CSF at 10 mg/kg, ip after 30 mins
# Assay type: ADME, organism-based, Cerebrospinal fluid
# Design: dose 10 mg/kg, route intraperitoneal
# test settings: read-out: Drug uptake
quantity kind: concentration at 0.5 h (nM)

Guide cases for concentration at 0.5 h, answers given:
• CC[C@H](C)COc1ccc([C@H](CN)NC(=O)[C@@H](C)c2ccccc2)cc1 = 1.1
• CC(C)COc1ccc([C@H](CO)NC(=O)[C@H]2C[C@@H]2c2cccs2)cc1 = 24

(a) CC[C@H](C)COc1ccc([C@H](CO)NC(=O)[C@H]2C[C@@H]2c2cccs2)cc1
(b) COc1ccc([C@H](CO)NC(=O)[C@@H](C)c2ccccc2)cc1
Just curious, which one has the larger concentration at 0.5 h reading, a or b ? Give the label of your selection.
b
